Molecular target: CXCL2
Assay: BLI
pKd: −log10 of the molar value.
Outcome: True for pKd of at least 8; False for anything lower.

{"columns": ["binder", "class_name"],
 "data": [
  ["P1090_IXORI (other) GSKELSGPESSENSIEAAFCDTNCTEGTDGVWSGCSAGCFCVHVGNSTVGRCMTFNGVDGG", "True"],
  ["P1142_AMBCA (other) KPQILQRTDHSTDSDWDPQMCPETCNPSKNISCSSECLCVTLGGGDETGTCFNMSGVDWLGHAQASDGHNDG", "True"],
  ["P1172_IXORI (other) LHEDEIFTVDYCGTNCTKQSNGSWTTCPGNCSCYHEDGKTDGFCLSTEYTDFTQFPNLTSEEMDAATPRPE", "False"],
  ["P1156_IXORI (other) ADDDNELFTVQYCGMNCTKDEGGTWTGCTGKKEGCKCYHESGKNYGLCLSTEYTDFSQYGNPSDSEIEAAKPKRSDTLSH", "False"],
  ["P1080_IXORI (other) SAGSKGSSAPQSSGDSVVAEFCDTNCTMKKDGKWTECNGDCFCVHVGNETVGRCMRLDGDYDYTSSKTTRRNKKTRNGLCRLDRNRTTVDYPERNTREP", "False"],
  ["P1168_IXORI (other) GQDTDGKEKSDEYELFTVEYCGTNCTQLENGSWTACTGKNGTCRCFHENDKKVGLCLSTEYTDFSEYPDPNSEEIKAASPLP", "False"],
  ["P1078_IXORI (other) GSKGSSAQQSSHDSIKAEFCETNCTMKTGGKWTQCHGGCFCVHVGNETVGRCIKLDGDYDYPSSKHEE", "False"],
  ["P675_IXORI (other) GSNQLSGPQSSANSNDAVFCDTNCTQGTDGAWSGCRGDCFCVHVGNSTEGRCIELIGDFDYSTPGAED", "False"],
  ["P458_IXORI (other) GSKQPGAAGSSSDSVEAVFCPTNCTKGTNGAWSGCSDDCICVHVGENTEGSCMKFSGDYDYPTPEA", "True"]
]}
